Experiment: Octanol-water partition coefficient, log P of the compound at 1 mg by RP-HPLC analysis
Type: physicochemical
Rule for this label: met means logP is less than 3; not met means logP is at least 3.

c1ccc2ccccc2c1; not met

Input line: Answer whether the compound COC(=O)c1ccccc1C(=O)OC [DIMETHYL PHTHALATE] has logP strictly less than 3
Output line: met

Input line: Answer whether the compound c1ccc2c(c1)oc1ccccc12 [DIBENZOFURAN] has logP strictly less than 3
Output line: not met

Input line: Answer whether the compound CC(=O)N(O)CCCCCNC(=O)CCC(=O)N(O)CCCCCNC(=O)CCC(=O)N(O)CCCCCN [DEFEROXAMINE] has logP strictly less than 3
Output line: met

Input line: Answer whether the compound CC(=O)N(O)CCCCCNC(=O)CCC(=O)N(O)CCCCCNC(=O)CCC(=O)N(O)CCCCCNC(=O)C1CC2CCCC(C2)C1 (stereo not given) has logP strictly less than 3
Output line: met

Reference source for all entries: ChEMBL document CHEMBL4184139
